Test system: MDCK p60AmotL2-inducible + doxycycline (p60AmotL2 expressing)
Protocol summary: drug sensitivity score (DSS) from 5-dose viability curve (DSS (area-based score, 0 = no response)); higher = more sensitive (stronger viability inhibition); extreme values may be limits of the assay
Test settings: doxycycline: 10 ng/mL; 72 h
Measured parameter: drug sensitivity score
Give bare numbers.

CON(C)C(=O)N1N=C(c2cc(F)ccc2F)S[C@@]1(CCCN)c1ccccc1 | 27.5
CCC(C)n1ncn(-c2ccc(N3CCN(c4ccc(OCC5COC(Cn6cncn6)(c6ccc(Cl)cc6Cl)O5)cc4)CC3)cc2)c1=O (stereo unspecified) | 10.7
CC(C)N(CCCNC(=O)Nc1ccc(C(C)(C)C)cc1)C[C@H]1O[C@@H](n2cc(Br)c3c(N)ncnc32)[C@H](O)[C@@H]1O | 0

Parameters: items (list). Returns: drug sensitivity score for each item.
1. O=C(NOCCO)c1ccc2cncn2c1Nc1ccc(I)cc1F
2. CCN(CC)CCN(Cc1ccc(-c2ccc(C(F)(F)F)cc2)cc1)C(=O)Cn1c(SCc2ccc(F)cc2)nc(=O)c2c1CCC2
3. Cc1ccc(NS(=O)(=O)c2cccc(C#N)c2)c2[nH]cc(C#N)c12

0.3
0
20.4

Parameters: items (list). Returns: drug sensitivity score for each item.
1. Cc1nc(-c2cn3c(n2)-c2ccc(-c4cnn(C(C)(C)C(N)=O)c4)cc2OCC3)n(C(C)C)n1
2. Cc1ccc(C(=O)Nc2ccc(Oc3cc4cnn(C)c4cc3-c3cn[nH]c3)c(F)c2)c(=O)n1-c1ccc(F)cc1
3. CC[C@@H]1CN(C(=O)NCC(F)(F)F)C[C@@H]1c1cnc2cnc3[nH]ccc3n12
4. CCOc1ccccc1-n1c(C(C)N2CCN(C(=O)COc3ccc(Cl)cc3)CC2)nc2ccccc2c1=O (stereo unspecified)
5. CNC(=O)c1cccc(-c2ccc3c(N4CCOC[C@@H]4C)nc(N4CCOC[C@@H]4C)nc3n2)c1
6. CC(=O)[C@]1(O)Cc2c(O)c3c(c(O)c2[C@@H](O[C@H]2C[C@H](N)[C@H](O)[C@H](C)O2)C1)C(=O)c1ccccc1C3=O

1. 6.3
2. 0
3. 0
4. 0
5. 15.5
6. 19

Parameters: items (list). Returns: drug sensitivity score for each item.
1. S=C(NCc1ccc2c(c1)OCO2)N1CCN(c2ncnc3c2oc2ccccc23)CC1
2. CC(C)(C)c1cnc(CSc2cnc(NC(=O)C3CCNCC3)s2)o1
3. Oc1ncnc2[nH]ncc12

1: 6; 2: 19.1; 3: 0

Parameters: items (list). Returns: drug sensitivity score for each item.
1. O=C(NC[C@H](O)CN1CCc2ccccc2C1)c1cc(NC2COC2)ncn1
2. CNC(=O)c1cc(Oc2ccc(NC(=O)Nc3ccc(Cl)c(C(F)(F)F)c3)c(F)c2)ccn1
3. CCCCc1nc2cc(/C=C/C(=O)NO)ccc2n1CCN(CC)CC
4. Cc1c(Cn2c(C)nc3c(C(=O)O)cc(N4CCOCC4)cc32)cccc1C(F)(F)F
5. Cc1cn(-c2cc(NC(=O)c3ccc(C)c(Nc4nccc(-c5cccnc5)n4)c3)cc(C(F)(F)F)c2)cn1
6. CC[C@@H](C(=O)[C@@H](C)[C@@H](O)[C@H](C)[C@@H]1O[C@@H]([C@@H](CC)C(=O)O)CC[C@@H]1C)[C@H]1O[C@]2(C=C[C@@H](O)[C@]3(CC[C@@](C)([C@H]4CC[C@](O)(CC)[C@H](C)O4)O3)O2)[C@H](C)C[C@@H]1C
7. CCCC(CCC)C(=O)O

1. 0.2
2. 5.6
3. 17.7
4. 0
5. 0
6. 18.7
7. 0

Parameters: items (list). Returns: drug sensitivity score for each item.
1. CCOC(=O)CCNc1cc(N2CCc3ccccc3CC2)nc(-c2ccccn2)n1
2. CNC(=O)c1ccc2cc([C@@]3(O)CCn4cncc43)ccc2c1

1. 3.9
2. 0

Parameters: items (list). Returns: drug sensitivity score for each item.
1. CC(C)(C#N)c1cc(Cn2cncn2)cc(C(C)(C)C#N)c1
2. CCN1CCN(Cc2ccc(Nc3ncc(F)c(-c4cc(F)c5nc(C)n(C(C)C)c5c4)n3)nc2)CC1
3. Cc1sc2c(c1C)C(c1ccc(Cl)cc1)=N[C@@H](CC(=O)Nc1ccc(O)cc1)c1nnc(C)n1-2
4. CCN(CC)CCNC(=O)c1c(C)[nH]c(/C=C2\C(=O)Nc3ccc(F)cc32)c1C
5. CC[C@]1(O)C[C@@H]2CN(CCc3c([nH]c4ccccc34)[C@@](C(=O)OC)(c3cc4c(cc3OC)N(C)[C@H]3[C@@](O)(C(=O)OC)[C@H](OC(C)=O)[C@]5(CC)C=CCN6CC[C@]43[C@@H]65)C2)C1
6. CONC(=O)c1ccccc1Nc1cc(Nc2cc(C)nn2C(C)C)ncc1Cl
7. CN(CC(=O)N(Cc1ccc(C2CCCCC2)cc1)c1ccc(C(=O)O)cc1)S(=O)(=O)c1c(F)c(F)c(F)c(F)c1F

0
7.3
16.6
1.2
25.2
1.2
3.7
